The compounds listed here are annotated with their pest or weed control at 62.5 g/ha.
tested on: barnyardgrass (Echinochloa crus-galli); test: Test G Post-Emergence Protocol; assay type: in vivo; details: Echinochloa crus-galli, post-emergence, 312 h, 62.5 g ai/ha, evaluated after 13 days, read-out: Barnyardgrass damage rating (100=total damage to plant; 0=no damage to plant)

{"columns": ["compound", "assayed system", "pest or weed control at 62.5 g/ha"],
 "data": [
  ["CN1C[C@@H](c2ccc(C(F)(F)F)cc2)[C@H](C(=O)Nc2cccc(Cl)c2C#N)C1=O (racemic)", "barnyardgrass (Echinochloa crus-galli)", "20%"],
  ["CN1C[C@@H](c2ccc(C(F)(F)F)cc2)[C@H](C(=O)Nc2ccc(F)c(F)c2Cl)C1=O (racemic)", "barnyardgrass (Echinochloa crus-galli)", "70%"],
  ["CN1C[C@@H](c2ccc(C(F)(F)F)cc2)[C@H](C(=O)Nc2ccnc(C(F)(F)F)c2)C1=O (racemic)", "barnyardgrass (Echinochloa crus-galli)", "0%"],
  ["CN1C[C@@H](c2ccc(C(F)(F)F)cc2)[C@H](C(=O)Nc2cncnc2)C1=O (racemic)", "barnyardgrass (Echinochloa crus-galli)", "0%"],
  ["CN1C[C@@H](c2ccc(C(F)(F)F)cc2)[C@H](C(=O)Nc2ccnc(F)c2)C1=O (racemic)", "barnyardgrass (Echinochloa crus-galli)", "0%"],
  ["CN1C[C@@H](c2cc(Cl)nc(Cl)c2)[C@H](C(=O)Nc2cccc(F)c2F)C1=O (racemic)", "barnyardgrass (Echinochloa crus-galli)", "60%"],
  ["CN1C[C@@H](c2ccc(C(F)(F)F)cc2)[C@H](C(=O)Nc2cc(C(F)(F)F)n(C)n2)C1=O (racemic)", "barnyardgrass (Echinochloa crus-galli)", "0%"],
  ["COc1cc([C@H]2CN(C)C(=O)[C@@H]2C(=O)Nc2ccccc2F)ccc1Cl (racemic)", "barnyardgrass (Echinochloa crus-galli)", "20%"],
  ["Cc1n[nH]c(NC(=O)[C@@H]2C(=O)N(C)C[C@H]2c2ccc(C(F)(F)F)cc2)c1C#N (racemic)", "barnyardgrass (Echinochloa crus-galli)", "0%"],
  ["CCc1nc(NC(=O)[C@@H]2C(=O)N(C)C[C@H]2c2ccc(C(F)(F)F)cc2)n[nH]1 (racemic)", "barnyardgrass (Echinochloa crus-galli)", "0%"],
  ["CN1C[C@@H](c2ccc(C(F)(F)F)cc2)[C@H](C(=O)Nc2ccc(Cl)nn2)C1=O (racemic)", "barnyardgrass (Echinochloa crus-galli)", "20%"],
  ["CCOC(=O)c1cccc([C@H]2CN(C)C(=O)[C@@H]2C(=O)Nc2ccccc2F)c1 (racemic)", "barnyardgrass (Echinochloa crus-galli)", "0%"],
  ["CN1C[C@H](c2ccc(C(F)(F)F)cc2)[C@@H](C(=O)Nc2ccc(C(F)(F)F)c(F)c2F)C1=O (racemic)", "barnyardgrass (Echinochloa crus-galli)", "0%"],
  ["Cc1cccc(NC(=O)[C@@H]2C(=O)N(C)C[C@H]2c2ccc(C(F)(F)F)cc2)c1Br (racemic)", "barnyardgrass (Echinochloa crus-galli)", "0%"]
]}

====

test system: ryegrass, Italian (Italian ryegrass, Lolium multiflorum); assay: Test A postemergence; format: in vivo; details: Lolium multiflorum, post-emergence, 240 h, 125 g ai/ha, postemergence; visual injury after approximately 10 d; 0 to 100 scale (0 no effect, 100 complete control); read-out: Plant response rating, Ryegrass, Italian
Excerpt: […]
measurement kind: pest or weed control at 125 g/ha (%)

{"columns": ["smiles entry", "assayed system", "observed measurement"],
 "data": [
  ["CN1C[C@H](c2cc(F)cc(F)c2)[C@@H](C(=O)Nc2ncccc2F)C1=O", "ryegrass, Italian (Italian ryegrass, Lolium multiflorum)", 0],
  ["COc1cc([C@H]2CN(C)C(=O)[C@@H]2C(=O)Nc2ccccc2F)ccc1C(F)(F)F", "ryegrass, Italian (Italian ryegrass, Lolium multiflorum)", 30],
  ["COc1cc([C@H]2CN(C)C(=O)[C@@H]2C(=O)Nc2cccc(F)c2F)ccc1C(F)(F)F", "ryegrass, Italian (Italian ryegrass, Lolium multiflorum)", 0],
  ["CN1C[C@H](c2ccc3c(c2)CCC3)[C@@H](C(=O)Nc2cccc(F)c2F)C1=O", "ryegrass, Italian (Italian ryegrass, Lolium multiflorum)", 40],
  ["Cc1ccc([C@H]2CNC(=S)[C@@H]2C(=O)Nc2cccc(F)c2C)cc1C", "ryegrass, Italian (Italian ryegrass, Lolium multiflorum)", 30]
]}
